Assay: Pharmacokinetic profile after single oral, intranasal and intravenous betahistine in beagle dogs, Example 5
Format: in vivo
Details: male, beagle, dog, in vivo, po, 24 mg/kg, AUC(0-t)
Please go through the items and note down their AUC(0-t).
One number for each entry, in ng·h/mL.

querySmiles	AUC(0-t) (ng·h/mL)
CNCCc1ccccn1	34.5

Here is another compound to look at.
The recorded AUC(0-t) for O=C(O)Cc1ccccn1 is 107000

====

Assay: Pharmacokinetic profile after single oral, intranasal and intravenous betahistine in beagle dogs, Example 5
Format: in vivo
Conditions: female, beagle, dog, in vivo, po, 48 mg/kg
attributeMeasured: half-life (min)
Numbers only, in min.

The recorded half-life for CNCCc1ccccn1 is 35.9

====

Assay: Pharmacokinetic profile after single oral, intranasal and intravenous betahistine in beagle dogs, Example 5
Assay type: in vivo
Details: female, beagle, dog, in vivo, po, 12 mg/kg, Betahistine Plasma Concentration
attributeMeasured: concentration at 6 h (ng/mL)
One number for each entry, in ng/mL.

The recorded concentration at 6 h for CNCCc1ccccn1 is 0

====

Test: Single ascending-dose clinical trial of intranasal betahistine in healthy volunteers (plasma pharmacokinetics, LC-MS/MS)
Details: both, human, plasma, inhaled or intranasal, 40 mg
attributeMeasured: Tmax (min)
Numbers only, in min.

The recorded Tmax for CNCCc1ccccn1 is 7.5

====

Assay: Pharmacokinetic profile after single oral, intranasal and intravenous betahistine in beagle dogs, Example 5
Type: in vivo
Details: female, beagle, dog, in vivo, po, 12 mg/kg, Betahistine Plasma Concentration
attributeMeasured: concentration at 5 min (ng/mL)
Numbers only, in ng/mL.

The recorded concentration at 5 min for CNCCc1ccccn1 is 2.59

====

Assay: Pharmacokinetic profile after single oral, intranasal and intravenous betahistine in beagle dogs, Example 5
Format: in vivo
Conditions: male, beagle, dog, in vivo, inhaled or intranasal, 5 mg/kg
attributeMeasured: Tmax (min)
Answers are plain numbers, in min.

The recorded Tmax for CNCCc1ccccn1 is 10.2

====

Please go through the items and note down their AUC(0-inf).
Test: Pharmacokinetic profile after single oral, intranasal and intravenous betahistine in beagle dogs, Example 5
Assay type: in vivo
Conditions: male, beagle, dog, in vivo, inhaled or intranasal, 5 mg/kg
Numeric answer plus unit only.

compound	AUC(0-inf)
O=C(O)Cc1ccccn1 [2-PAA, 2-pyridylacetic acid]	12200 ng·h/mL

Here is another compound to look at.
The recorded AUC(0-inf) for CNCCc1ccccn1 [betahistine] is 131 ng·h/mL

====

Assay: Pharmacokinetic profile after single oral, intranasal and intravenous betahistine in beagle dogs, Example 5
Format: in vivo
Details: male, beagle, dog, in vivo, po, 12 mg/kg, Betahistine Plasma Concentration
attributeMeasured: concentration at 0.167 h (ng/mL)
Give bare numbers, in ng/mL.

The recorded concentration at 0.167 h for CNCCc1ccccn1 is 2.73

====

Assay: Pharmacokinetic profile after single oral, intranasal and intravenous betahistine in beagle dogs, Example 5
Type: in vivo
Conditions: male, beagle, dog, in vivo, po, 24 mg/kg, Betahistine Plasma Concentration
attributeMeasured: concentration at 1 h
Numeric answer plus unit only.

The recorded concentration at 1 h for CNCCc1ccccn1 [betahistine] is 0.0269 µg/mL

====

Assay: Pharmacokinetic profile after single oral, intranasal and intravenous betahistine in beagle dogs, Example 5
Assay type: in vivo
Conditions: male, beagle, dog, in vivo, inhaled or intranasal, 9.8 mg/kg, AUC(0-t)
Method: In this study, the pharmacokinetic profile of betahistine was evaluated after a single dose administration of betahistine in male and female beagle dogs (age 5-7 months; weight of 5-11 kg, within a range of 3 kg for each sex) for three routes of administration: oral, intranasal, and intravenous. On Day 1 of the study, betahistine (BH) was delivered orally at a dose of 12 mg/kg, 24 mg/kg, or 48 mg/kg. Each treatment group comprised 8 animals (4 males and 4 females). […]
attributeMeasured: AUC(0-t)
Numeric answer plus unit only.

compound	valueObserved
O=C(O)Cc1ccccn1 [2-PAA, 2-pyridylacetic acid]	10400 ng·h/mL

The recorded AUC(0-t) for CNCCc1ccccn1 [betahistine] is 172 ng·h/mL

====

Assay: Pharmacokinetic profile after single oral, intranasal and intravenous betahistine in beagle dogs, Example 5
Format: in vivo
Conditions: male, beagle, dog, in vivo, po, 12 mg/kg, Betahistine Plasma Concentration
attributeMeasured: concentration at 0.5 h (ng/mL)
Numbers only, in ng/mL.

The recorded concentration at 0.5 h for CNCCc1ccccn1 [betahistine] is 18.9

====

Experiment: Pharmacokinetic profile after single oral, intranasal and intravenous betahistine in beagle dogs, Example 5
Assay type: in vivo
Conditions: female, beagle, dog, in vivo, po, 48 mg/kg, Betahistine Plasma Concentration
attributeMeasured: concentration at 6 h (ng/mL)
Numbers only, in ng/mL.

The recorded concentration at 6 h for CNCCc1ccccn1 is 0.64

====

Experiment: Pharmacokinetic profile after single oral, intranasal and intravenous betahistine in beagle dogs, Example 5
Assay type: in vivo
Settings: female, beagle, dog, in vivo, po, 48 mg/kg, Betahistine Plasma Concentration
Protocol: In this study, the pharmacokinetic profile of betahistine was evaluated after a single dose administration of betahistine in male and female beagle dogs (age 5-7 months; weight of 5-11 kg, within a range of 3 kg for each sex) for three routes of administration: oral, intranasal, and intravenous. On Day 1 of the study, betahistine (BH) was delivered orally at a dose of 12 mg/kg, 24 mg/kg, or 48 mg/kg. Each treatment group comprised 8 animals (4 males and 4 females). […]
attributeMeasured: concentration at 0.333 h (µg/mL)
Numbers only, in µg/mL.

The recorded concentration at 0.333 h for CNCCc1ccccn1 is 0.0115

====

Assay: Pharmacokinetic profile after single oral, intranasal and intravenous betahistine in beagle dogs, Example 5
Assay type: in vivo
Conditions: both sexes, beagle, dog, in vivo, po, 24 mg/kg, Betahistine Plasma Concentration
attributeMeasured: concentration at 5 min (ng/mL)
One number for each entry, in ng/mL.

The recorded concentration at 5 min for CNCCc1ccccn1 is 5

====

Experiment: Pharmacokinetic profile after single oral, intranasal and intravenous betahistine in beagle dogs, Example 5
Assay type: in vivo
Conditions: both sexes, beagle, dog, in vivo, iv, 0.44 mg/kg, Betahistine Plasma Concentration
attributeMeasured: concentration at 0.333 h (ng/mL)
Numbers only, in ng/mL.

The recorded concentration at 0.333 h for CNCCc1ccccn1 is 7.03

====

Assay: Pharmacokinetic profile after single oral, intranasal and intravenous betahistine in beagle dogs, Example 5
Type: in vivo
Details: male, beagle, dog, in vivo, po, 12 mg/kg, AUC(0-t)
attributeMeasured: AUC(0-t) (ng·h/mL)
Numbers only, in ng·h/mL.

The recorded AUC(0-t) for CNCCc1ccccn1 is 12.5

====

Experiment: Single ascending-dose clinical trial of intranasal betahistine in healthy volunteers (plasma pharmacokinetics, LC-MS/MS)
Conditions: both, human, plasma, inhaled or intranasal, 0.57 mg/kg
attributeMeasured: AUC

The recorded AUC for CNCCc1ccccn1 [betahistine] is 3.53 ng·h/mL

====

Please go through the items and note down their Cmax.
Test: Pharmacokinetic profile after single oral, intranasal and intravenous betahistine in beagle dogs, Example 5
Assay type: in vivo
Conditions: female, beagle, dog, in vivo, inhaled or intranasal, 13 mg/kg
Answers are plain numbers, in ng/mL.

compound	valueUnits	Cmax
CNCCc1ccccn1 [betahistine]	ng/mL	1790

Here is another compound to look at.
The recorded Cmax for O=C(O)Cc1ccccn1 [2-PAA, 2-pyridylacetic acid] is 7030

====

Assay: Pharmacokinetic profile after single oral, intranasal and intravenous betahistine in beagle dogs, Example 5
Type: in vivo
Conditions: male, beagle, dog, in vivo, po, 12 mg/kg, Betahistine Plasma Concentration
attributeMeasured: concentration at 6 h (ng/mL)
Numbers only, in ng/mL.

The recorded concentration at 6 h for CNCCc1ccccn1 is 0.016

====

Test: Pharmacokinetic profile after single oral, intranasal and intravenous betahistine in beagle dogs, Example 5
Type: in vivo
Conditions: male, beagle, dog, in vivo, inhaled or intranasal, 15.8 mg/kg
attributeMeasured: Tmax (min)
One number for each entry, in min.

compound	Tmax / min
CNCCc1ccccn1 [betahistine]	7.8

The recorded Tmax for O=C(O)Cc1ccccn1 [2-PAA, 2-pyridylacetic acid] is 60

====

Experiment: Pharmacokinetic profile after single oral, intranasal and intravenous betahistine in beagle dogs, Example 5
Assay type: in vivo
Conditions: both sexes, beagle, dog, in vivo, po, 48 mg/kg, Betahistine Plasma Concentration
attributeMeasured: concentration at 6 h
Numeric answer plus unit only.

The recorded concentration at 6 h for CNCCc1ccccn1 is 0.439 ng/mL

====

Assay: Pharmacokinetic profile after single oral, intranasal and intravenous betahistine in beagle dogs, Example 5
Type: in vivo
Conditions: male, beagle, dog, in vivo, po, 48 mg/kg, Betahistine Plasma Concentration
attributeMeasured: concentration at 24 h (ng/mL)
Give bare numbers, in ng/mL.

The recorded concentration at 24 h for CNCCc1ccccn1 [betahistine] is 0

====

Assay: Pharmacokinetic profile after single oral, intranasal and intravenous betahistine in beagle dogs, Example 5
Assay type: in vivo
Conditions: both sexes, beagle, dog, in vivo, iv, 0.44 mg/kg, Betahistine Plasma Concentration
attributeMeasured: concentration at 24 h

The recorded concentration at 24 h for CNCCc1ccccn1 is 0.202 ng/mL
